System: Protease XXIII
Experiment: Homogeneous aqueous enzymatic resolution (ester hydrolysis) with enzyme A
Format: biochemical, Aspergillus oryzae
Details: acid product, R; 10.0 mmol ester in 100 ml 0.2 M phosphate buffer pH 7.0, 100 mg enzyme A, 20-22 °C, 20 hours
test readout: % e.e. (%)

>  <compound>
CC(C)Cc1ccc(C(C)C(=O)OCCS(=O)(=O)O)cc1 (racemic)

>  <test readout>
% e.e.

>  <reported value>
93.3

$$$$
>  <compound>
CC(C)Cc1ccc(C(C)C(=O)OCCCCS(=O)(=O)O)cc1 (racemic)

>  <test readout>
% e.e.

>  <reported value>
97.4

$$$$
>  <compound>
CC(C)Cc1ccc(C(C)C(=O)OCCCOS(=O)(=O)O)cc1 (racemic)

>  <test readout>
% e.e.

>  <reported value>
96.5

$$$$
>  <compound>
CC(C)Cc1ccc(C(C)C(=O)OCCCS(=O)(=O)O)cc1 (racemic)

>  <test readout>
% e.e.

>  <reported value>
84.2

$$$$
